# Tested on: MCF7
# method summary: NCI tumour cell line growth inhibition, 48 h
Calls of active or inactive are those of the source. No stated cut-off is given here; in the data, active = GI50 up to about 1.1 µM and inactive = higher.
Return exactly one item of yes = active, no = inactive

Cc1cccc2c1CC1(Cc3c(C)cccc3C1=O)C2=O: no

Write down the call the test reported for this compound. Item: CCOC(=O)c1nc2cc(C(F)(F)F)ccc2nc1Nc1ccc(OC)cc1 no

Same for C[C@@H]1CC[C@@]2(C)C(C(=O)O)=CCCC2[C@@]1(C)CC(=O)c1ccoc1 (stereo not given in full) no

// next record Cc1cc2cc3c(C)cc(=O)oc3c(C)c2o1 no

Then CC12C=CC(=O)C=C1CCC1C3CCC(O)(C(=O)CO)C3(C)CC(O)C12F (stereo not given) ? no

Next: COC(=O)C1=C(C(=O)OC)C(C(=O)OC)C(C(=O)OC)C(C(=O)OC)(C(=O)OC)C(C(=O)OC)=C1C(=O)OC (stereo not given) no

What about this compound? CN(C)CCCNc1c(C#N)[n+]([O-])c2cc(Cl)ccc2[n+]1[O-] no

Okay, and O=C(O)CN(CC(=O)O)C(C(=O)O)c1ccccc1 (stereo not given) ? no

Also, O=c1[nH]c(Br)nc2[nH]nnc12 please. no

Can you check CC(=O)NCCC1CN(C(=O)/C=C/I)c2ccccc21 (stereo not given) next? yes
